# assay remarks: clinical
# experimental setup: both, human, plasma, oral, 300 mg, AUCinf, single 300 mg, fasted
# Protocol: A total of 54 subjects (30 subjects in Study CL001 and 24 subjects in Study CL002) were enrolled. […] Urine collected in each interval was well mixed, the pH was recorded, the total volume (or the weight and specific gravity) was recorded, and 2 aliquots of 20 mL each were collected into polypropylene containers and stored at −20° C. until they were shipped for analysis. […]
readout: AUC(0-inf) (ng·h/mL)
Reply with just the number (in ng·h/mL).

Suppose we examine the compound CCCN[C@@H]1CCc2nc(N)sc2C1 [dexpramipexole] ; what AUC(0-inf) value has been reported?
8620

###

# assay remarks: clinical
# experimental setup: both, human, plasma, oral, 150 mg, AUC0-t, single 150 mg, fasted
# Method: A total of 54 subjects (30 subjects in Study CL001 and 24 subjects in Study CL002) were enrolled. […] Urine collected in each interval was well mixed, the pH was recorded, the total volume (or the weight and specific gravity) was recorded, and 2 aliquots of 20 mL each were collected into polypropylene containers and stored at −20° C. until they were shipped for analysis. […]
readout: AUC(0-t) (ng·h/mL)
Reply with just the number (in ng·h/mL).

Suppose we examine the compound CCCN[C@@H]1CCc2nc(N)sc2C1 [dexpramipexole] ; what AUC(0-t) value has been reported?
3360

###

# assay remarks: clinical
# experimental setup: both, human, plasma, oral, 50 mg, Cmax, single 50 mg, fasted
readout: Cmax (ng/mL)
Reply with just the number (in ng/mL).

Suppose we examine the molecule CCCN[C@@H]1CCc2nc(N)sc2C1 [dexpramipexole] ; what Cmax value has been reported?
125

###

# assay remarks: clinical
# experimental setup: both, human, plasma, oral, 50 mg, AUC0-t, single 50 mg, fasted
readout: AUC(0-t)

Suppose we examine the compound CCCN[C@@H]1CCc2nc(N)sc2C1 [dexpramipexole] ; what AUC(0-t) value has been reported?
989 ng·h/mL

###

# assay remarks: clinical
# experimental setup: both, human, plasma, oral, 300 mg, Vz/F, single 300 mg, fasted
readout: Vd/F (L)
Reply with just the number (in L).

Suppose we examine the compound CCCN[C@@H]1CCc2nc(N)sc2C1 [dexpramipexole] ; what Vd/F value has been reported?
258

###

# assay remarks: clinical
# experimental setup: both, human, plasma, oral, 150 mg
readout: Cmax (ng/mL)
Reply with just the number (in ng/mL).

Suppose we examine the compound CCCN[C@@H]1CCc2nc(N)sc2C1 [dexpramipexole] ; what Cmax value has been reported?
479

###

# assay remarks: clinical
# experimental setup: human, in vivo, 150 mg
readout: Tmax (h)
Reply with just the number (in h).

Suppose we examine the compound CCCN[C@@H]1CCc2nc(N)sc2C1 [dexpramipexole] ; what Tmax value has been reported?
1.7

###

# assay remarks: clinical
# experimental setup: both, human, plasma, oral, 300 mg, Cmax, single 300 mg, fasted
readout: Cmax (ng/mL)
Reply with just the number (in ng/mL).

Suppose we examine the molecule CCCN[C@@H]1CCc2nc(N)sc2C1 [dexpramipexole] ; what Cmax value has been reported?
781

###

# assay remarks: clinical
# experimental setup: both, human, plasma, oral, 150 mg, Tmax (median), single 150 mg, fed
readout: Tmax (h)
Reply with just the number (in h).

Suppose we examine the compound CCCN[C@@H]1CCc2nc(N)sc2C1 [dexpramipexole] ; what Tmax value has been reported?
2.58
